test system: human colon cancer cell strain HCT-116; test: MTT assay, inhibition of tumor cell growth in vitro, 72 h; type: cell-based; conditions: Homo sapiens, HCT-116, MTT, read-out: Antitumor proliferative activities of tumor cell (IC50, μM) HCT-116 (converted)
Simple rule here: IC50 less than 2 µM is Satisfied, otherwise Not satisfied.

[[record]]
molecule = "Cn1ncc(Cl)c1-c1cc(C(=O)N[C@@H]2CNC(CC(O)CO)C[C@H]2c2ccc(F)c(F)c2)oc1Cl (stereo partly shown)"
target = "human colon cancer cell strain HCT-116"
class_label = "Satisfied"

[[record]]
molecule = "Cn1ncc(Cl)c1-c1ccc(C(=O)N[C@@H]2CNCC[C@H]2c2ccc(Cl)cc2)cc1C#N"
target = "human colon cancer cell strain HCT-116"
class_label = "Satisfied"

[[record]]
molecule = "Cn1ncc(Cl)c1-c1cc(C(=O)N[C@H]2CNCC[C@@H]2c2ccc(F)c(F)c2)oc1Cl (racemic)"
target = "human colon cancer cell strain HCT-116"
class_label = "Satisfied"


Asked: Please let me know if Cn1ncc(Cl)c1-c1csc(C(=O)N[C@H]2CNCC[C@@H]2c2ccc(Cl)cc2)c1 (racemic) shows IC50 below 2 µM.
Given back: Not satisfied

Asked: And what about the molecule Cn1ncc(Cl)c1-c1coc(C(=O)N[C@H]2CNCC[C@@H]2c2ccc(Cl)cc2)c1 (racemic) ?
Given back: Not satisfied

Asked: And what about the molecule CCC[C@H]1CNC[C@@H](NC(=O)c2ccc(-c3c(Cl)cnn3C)s2)[C@@H]1c1cccc(F)c1 ?
Given back: Not satisfied

Asked: And what about the molecule Cn1ncc(Cl)c1-c1sc(C(=O)N[C@@H]2CNCC[C@H]2c2cccc(F)c2)cc1Cl ?
Given back: Not satisfied

###

tested on: human colon cancer cell strain HCT-116; experiment: MTT assay, inhibition of tumor cell growth in vitro, 72 h; assay type: cell-based; conditions: Homo sapiens, HCT-116, MTT, read-out: Antitumor proliferative activities of tumor cell (IC50, μM) HCT-116 (converted)
Simple rule here: IC50 less than 1 µM is YES, otherwise NO.

Record excerpt, results attached:
[[record]]
molecule = "Cn1ncc(Cl)c1-c1cc(C(=O)N[C@@H]2CNC(CC(=O)NCCO)C[C@H]2c2ccc(Cl)c(Cl)c2)oc1Cl (some centres unmarked)"
class_label = "NO"

[[record]]
molecule = "Cc1cccc([C@H]2CCNC[C@@H]2NC(=O)c2cc(Cl)c(-c3ncnn3C)o2)c1 (racemic)"
class_label = "NO"

[[record]]
molecule = "Cn1ncc(Cl)c1-c1ccc(C(=O)N[C@@H]2CNCC[C@H]2c2ccc(Cl)c(C(F)(F)F)c2)nc1"
class_label = "YES"

[[record]]
molecule = "Cn1ncc(Cl)c1-c1cc(C(=O)N[C@@H]2CNC(CCN3CCCC3)C[C@H]2c2ccc(Cl)c(Cl)c2)oc1Cl (some centres unmarked)"
class_label = "YES"

[[record]]
molecule = "Cc1cc(C(=O)N[C@@H]2CNCC[C@H]2c2ccc(Cl)c(C(F)(F)F)c2)ccc1-c1c(Cl)cnn1C"
class_label = "YES"

[[record]]
molecule = "Cc1cc(C(=O)N[C@H]2CNCC[C@@H]2C2CCCC(Cl)C2)ncc1-c1c(Cl)cnn1C (some centres unmarked)"
class_label = "NO"

[[record]]
molecule = "Cc1cc(C(=O)N[C@@H]2CNCC[C@H]2c2ccc(F)c(F)c2)ncc1-c1c(Cl)cnn1C"
class_label = "YES"

[[record]]
molecule = "Cc1cnn(C)c1-c1cnc(C(=O)N[C@H]2CNCC[C@@H]2c2ccc[nH]2)nc1C (racemic)"
class_label = "NO"


Asked: Please let me know if CCC[C@H]1CNC[C@@H](NC(=O)c2cc(-c3c(Cl)cnn3C)c(Cl)o2)[C@@H]1c1cccc(F)c1 shows IC50 below 1 µM.
Given back: YES

Asked: And what about the molecule CNS(=O)(=O)CC1C[C@@H](c2ccc(F)c(F)c2)[C@H](NC(=O)c2ccc(-c3c(Cl)cnn3C)c(F)c2)CN1 (some centres unmarked) ?
Given back: NO

Asked: And what about the molecule C=Cc1cnn(C)c1-c1ccc(C(=O)N[C@@H]2CNCC[C@H]2c2cccc(F)c2)s1 ?
Given back: NO

Asked: And what about the molecule Cn1ncc(Cl)c1-c1cc(C(=O)N[C@@H]2CNC(CCCO)C[C@H]2c2ccc(Cl)c(Cl)c2)oc1Cl (some centres unmarked) ?
Given back: YES

Asked: And what about the molecule Cn1ncc(-c2ccccc2)c1-c1ccc(C(=O)N[C@@H]2CNCC[C@H]2c2ccc(F)c(F)c2)s1 ?
Given back: NO

Asked: And what about the molecule COc1cc(C(=O)N[C@@H]2CNCC[C@H]2c2cccc(F)c2)ccc1-c1c(Cl)cnn1C ?
Given back: NO

Asked: And what about the molecule Cc1cc(C(=O)N[C@@H]2CNC(CCN3CCCCC3)C[C@H]2c2ccc(F)c(F)c2)ccc1-c1c(Cl)cnn1C (some centres unmarked) ?
Given back: YES

Asked: And what about the molecule Cn1ncc(Cl)c1-c1cc(C(=O)N[C@H]2CNCC[C@@H]2c2ccc(Cl)cc2)oc1Cl (racemic) ?
Given back: NO

Asked: And what about the molecule CCc1cnn(C)c1-c1ccc(C(=O)N[C@@H]2CNCC[C@H]2c2cccc(F)c2)s1 ?
Given back: NO

Asked: And what about the molecule CCc1c(-c2ncnn2C)c(Br)n(C)c1C(=O)N[C@H]1CNCC[C@@H]1c1cccc(C(F)(F)F)c1 (racemic) ?
Given back: NO

Asked: And what about the molecule Cn1ncc(Cl)c1-c1ccc(C(=O)N[C@@H]2CNCC[C@H]2c2cccc3[nH]ccc23)cc1Cl ?
Given back: YES
